Molecular target: T1, DAXX helical bundle (DHB) domain of death domain-associated protein (DAXX), aa 55-144 (UniProt Q9UER7 55-144)
T1 chain: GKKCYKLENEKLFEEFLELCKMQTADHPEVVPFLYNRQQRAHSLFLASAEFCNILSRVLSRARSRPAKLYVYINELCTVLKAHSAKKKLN
Experiment: ITC
In this section we review reported Kd values for a set of binders.
Measurement Type: Kd (µM)

{"Binder": "NNPENRIAKKMLLEEIKANLS (peptide, UniProt P46100 1265-1285, looked up, source: synthetic peptide) [ATRX_(1,265–1,285) D1266N mutant peptide]", "Measurement Type": "Kd", "Readout Value": 7}
{"Binder": "NDPQNRIAKKMLLEEIKANLS (peptide, UniProt P46100 1265-1285, looked up, source: synthetic peptide) [ATRX_(1,265–1,285) E1268Q mutant peptide]", "Measurement Type": "Kd", "Readout Value": 5.6}
{"Binder": "NDPENRIAAKMLLEEIKANLS (peptide, UniProt P46100 1265-1285, looked up, source: synthetic peptide) [ATRX_(1,265–1,285) K1273A mutant peptide]", "Measurement Type": "Kd", "Readout Value": 2.3}
{"Binder": "NDPENRIAKKMLLEQIKANLS (peptide, UniProt P46100 1265-1285, looked up, source: synthetic peptide) [ATRX_(1,265–1,285) E1279Q mutant peptide]", "Measurement Type": "Kd", "Readout Value": 3.2}
